- Procedure Summary: Mouse pharmacokinetic assay
- Assay type: in vivo, male C57 mice
- Experimental Setup: male, C57, mouse, po; mice, intragastric administration 10 mg/kg, plasma
- Method: Experimental animals: male C57 mice, 22-25 g, 6 mice/compound. Experimental design: on the day of the experiment, C57 mice were randomly grouped according to body weight. […] Before and after the administration, 0.06 mL of blood was taken from the orbits under isoflurane anaesthesia and placed in an EDTAK2 centrifuge tube. […] Before analysis and detection, all samples were stored at -80°C, and the samples were quantitatively analysed by LC-MS/MS. […]
Measurement Type: AUC(0-t) (µg·h/mL)

compound="Cc1cc(-n2nc3c(c2-n2ccn(-c4ccc5c(cnn5C)c4F)c2=O)[C@H](C)N(C(=O)c2cc4cc([C@H]5CCOC(C)(C)C5)ccc4n2[C@@]2(c4noc(=O)[nH]4)C[C@@H]2C)CC3)cc(C)c1F [Orforglipron, reference compound]" measurement_type=AUC(0-t) unit_info=µg·h/mL test_result=3.25

----------
- System Name: CYP2C9 (Homo sapiens, UniProt P11712)
- Construct: from tissue; host or cells: human liver microsomes
- Sequence (P11712 whole entry): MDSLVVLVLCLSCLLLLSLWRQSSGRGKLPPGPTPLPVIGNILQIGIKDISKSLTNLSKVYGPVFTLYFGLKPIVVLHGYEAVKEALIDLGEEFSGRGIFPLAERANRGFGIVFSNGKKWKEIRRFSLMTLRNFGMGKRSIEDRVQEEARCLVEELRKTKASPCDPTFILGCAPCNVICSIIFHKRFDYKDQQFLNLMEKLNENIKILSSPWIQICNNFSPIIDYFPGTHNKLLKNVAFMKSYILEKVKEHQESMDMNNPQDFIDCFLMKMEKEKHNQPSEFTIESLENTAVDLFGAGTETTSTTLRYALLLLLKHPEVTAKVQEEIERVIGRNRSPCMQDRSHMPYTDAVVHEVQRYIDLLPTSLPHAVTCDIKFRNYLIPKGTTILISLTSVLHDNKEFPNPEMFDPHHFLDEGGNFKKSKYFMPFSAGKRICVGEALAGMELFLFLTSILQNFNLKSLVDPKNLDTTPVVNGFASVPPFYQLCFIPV
- Procedure Summary: CYP450 enzyme activity inhibition assay (human liver microsomes)
- Type: in vitro ADME
- Experimental Setup: human, microsomes
- Description: The purpose of this study was to evaluate the effects of the test compounds on the activities of five isoenzymes (CYP1A2, CYP2C9, CYP2C19, CYP2D6, and CYP3A4) of human liver microsomal cytochrome P450 (CYP) using an in vitro testing system. […] After the completion of the reaction, the sample was treated and liquid chromatography-tandem mass spectrometry (LC-MS/MS) was used to quantitatively detect metabolites produced by specific substrates. […]
The reader will find reported IC50 values listed item by item below.
Measurement Type: IC50

compound="Cc1cc(-n2nc3c(c2-n2ccn(-c4ccc5c(c4)N(C)C(=O)C54CCOCC4)c2=O)[C@H](C)N(C(=O)c2cc4cc(C5CCOC(C)(C)C5)sc4n2C2(c4noc(=O)[nH]4)C[C@@H]2C)CC3)cc(C)c1F (single isomer, unassigned)" measurement_type=IC50 test_result="3.31 µM"
compound=[2H]C([2H])([2H])N1C(=O)C2(CCOCC2)c2ccc(-n3ccn(-c4c5c(nn4-c4cc(C)c(F)c(C)c4)CCN(C(=O)c4cc6cc([C@H]7CCOC(C)(C)C7)ccc6n4[C@@]4(c6noc(=O)[nH]6)C[C@@H]4C)[C@H]5C)c3=O)cc21 measurement_type=IC50 test_result="> 30 µM"
compound=C[C@H]1c2c(nn(-c3ccc(F)c(C4(F)CC4)c3)c2-n2ccn(-c3ccc4c(c3)N(C)C(=O)C43CCOCC3)c2=O)CCN1C(=O)c1cc2cc([C@H]3CCOC(C)(C)C3)ccc2n1[C@@]1(c2noc(=O)[nH]2)C[C@@H]1C measurement_type=IC50 test_result="> 30 µM"

----------
- Procedure Summary: Mouse pharmacokinetic assay
- Format: in vivo, male C57 mice
- Experimental Setup: mouse, plasma, po; mice, intragastric administration 10 mg/kg (intravenous 2.5 mg/kg)
The reader will find reported bioavailability values listed item by item below.
Measurement Type: bioavailability (%)

compound="[2H]C([2H])([2H])N1C(=O)C2(CCOCC2)c2ccc(-n3ccn(-c4c5c(nn4-c4ccc(F)c(C(=C)F)c4)CCN(C(=O)c4cc6cc([C@H]7CCOC(C)(C)C7)ccc6n4[C@@]4(c6noc(=O)[nH]6)C[C@@H]4C)[C@H]5C)c3=O)c(F)c21 [Compound 55]" test_result=25.1
compound="Cc1cc(-n2nc3c(c2-n2ccn(-c4ccc5c(c4)N(C)C(=O)C54CCOCC4)c2=O)[C@H](C)N(C(=O)c2cc4cc([C@H]5CCOC(C)(C)C5)ccc4n2[C@@]2(c4noc(=O)[nH]4)C[C@@H]2C)CC3)cc(C)c1F [Compound 2]" test_result=70.3
compound="C=C(F)c1cc(-n2nc3c(c2-n2ccn(-c4ccc5c(c4F)N(C)C(=O)C54CCOCC4)c2=O)[C@H](C)N(C(=O)c2cc4cc([C@H]5CCOC(C)(C)C5)ccc4n2[C@@]2(c4noc(=O)[nH]4)C[C@@H]2C)CC3)ccc1F [Compound 54]" test_result=33.8

----------
- System Name: CYP3A4 (Homo sapiens, UniProt P08684)
- Construct: from tissue; host or cells: human liver microsomes
- Sequence (P08684 whole entry): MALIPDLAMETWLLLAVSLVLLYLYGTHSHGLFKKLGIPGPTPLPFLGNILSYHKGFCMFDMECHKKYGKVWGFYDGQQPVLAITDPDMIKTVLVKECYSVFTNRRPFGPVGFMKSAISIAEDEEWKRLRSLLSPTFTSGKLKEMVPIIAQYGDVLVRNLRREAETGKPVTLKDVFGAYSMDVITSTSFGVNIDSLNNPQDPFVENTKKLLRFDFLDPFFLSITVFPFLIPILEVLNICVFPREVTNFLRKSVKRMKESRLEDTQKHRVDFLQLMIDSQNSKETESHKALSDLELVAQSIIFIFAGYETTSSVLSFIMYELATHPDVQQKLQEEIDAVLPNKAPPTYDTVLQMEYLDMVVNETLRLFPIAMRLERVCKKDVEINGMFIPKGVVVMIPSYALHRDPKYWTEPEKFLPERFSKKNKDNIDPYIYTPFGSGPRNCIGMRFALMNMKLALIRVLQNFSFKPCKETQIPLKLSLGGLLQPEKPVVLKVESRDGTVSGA
- Procedure Summary: CYP450 enzyme activity inhibition assay (human liver microsomes)
- Type: in vitro ADME
- Experimental Setup: human, microsomes
- Description: The purpose of this study was to evaluate the effects of the test compounds on the activities of five isoenzymes (CYP1A2, CYP2C9, CYP2C19, CYP2D6, and CYP3A4) of human liver microsomal cytochrome P450 (CYP) using an in vitro testing system. […] After the completion of the reaction, the sample was treated and liquid chromatography-tandem mass spectrometry (LC-MS/MS) was used to quantitatively detect metabolites produced by specific substrates. […]
pIC50: −log10 of the molar value.
Measurement Type: pIC50

compound="Cc1cc(-n2nc3c(c2-n2ccn(-c4ccc5c(c4)N(C)C(=O)C54CCOCC4)c2=O)[C@H](C)N(C(=O)c2cc4cc(C5CCOC(C)(C)C5)sc4n2C2(c4noc(=O)[nH]4)C[C@@H]2C)CC3)cc(C)c1F (single isomer, unassigned)" system_name="CYP3A4 (Homo sapiens, UniProt P08684)" measurement_type=pIC50 test_result="< 4.52"
compound=C[C@H]1c2c(nn(-c3ccc(F)c(C4(F)CC4)c3)c2-n2ccn(-c3ccc4c(c3)N(C)C(=O)C43CCOCC3)c2=O)CCN1C(=O)c1cc2cc([C@H]3CCOC(C)(C)C3)ccc2n1[C@@]1(c2noc(=O)[nH]2)C[C@@H]1C system_name="CYP3A4 (Homo sapiens, UniProt P08684)" measurement_type=pIC50 test_result="< 4.52"
compound=[2H]C([2H])([2H])N1C(=O)C2(CCOCC2)c2ccc(-n3ccn(-c4c5c(nn4-c4cc(C)c(F)c(C)c4)CCN(C(=O)c4cc6cc([C@H]7CCOC(C)(C)C7)ccc6n4[C@@]4(c6noc(=O)[nH]6)C[C@@H]4C)[C@H]5C)c3=O)cc21 system_name="CYP3A4 (Homo sapiens, UniProt P08684)" measurement_type=pIC50 test_result="< 4.52"

----------
- System Name: OATP1B3 (Homo sapiens)
- Sequence (Q9NPD5 whole entry, species assumed): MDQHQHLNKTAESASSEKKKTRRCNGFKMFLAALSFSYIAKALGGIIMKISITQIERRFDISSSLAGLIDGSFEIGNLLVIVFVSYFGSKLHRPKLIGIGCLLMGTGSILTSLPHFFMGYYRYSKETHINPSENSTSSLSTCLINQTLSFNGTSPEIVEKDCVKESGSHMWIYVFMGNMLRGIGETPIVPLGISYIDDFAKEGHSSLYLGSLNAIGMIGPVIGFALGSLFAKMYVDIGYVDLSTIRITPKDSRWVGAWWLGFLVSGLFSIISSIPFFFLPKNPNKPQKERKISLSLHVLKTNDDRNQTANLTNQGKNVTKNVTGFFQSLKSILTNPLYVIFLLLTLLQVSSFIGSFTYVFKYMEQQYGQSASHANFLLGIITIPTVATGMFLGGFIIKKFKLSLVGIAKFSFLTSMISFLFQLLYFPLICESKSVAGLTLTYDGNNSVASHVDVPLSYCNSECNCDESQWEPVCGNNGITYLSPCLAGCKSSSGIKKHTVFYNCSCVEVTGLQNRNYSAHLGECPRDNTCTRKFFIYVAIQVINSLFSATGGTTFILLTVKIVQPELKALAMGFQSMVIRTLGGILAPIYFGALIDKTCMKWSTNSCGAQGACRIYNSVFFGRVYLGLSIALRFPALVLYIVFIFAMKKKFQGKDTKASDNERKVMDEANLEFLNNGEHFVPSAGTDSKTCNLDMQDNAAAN
- Procedure Summary: in vitro
- Experimental Setup: oatp1b3 cells
pIC50: −log10 of the molar value.
Measurement Type: pIC50

structure_string=C[C@H]1c2c(nn(-c3ccc(F)c(C4(F)CC4)c3)c2-n2ccn(-c3ccc4c(c3)N(C)C(=O)C43CCOCC3)c2=O)CCN1C(=O)c1cc2cc([C@H]3CCOC(C)(C)C3)ccc2n1[C@@]1(c2noc(=O)[nH]2)C[C@@H]1C test_result="< 6.00"

----------
- Procedure Summary: Mouse pharmacokinetic assay
- Format: in vivo, male C57 mice
- Experimental Setup: male, C57, mouse, plasma, oral; mice, intragastric administration 10 mg/kg (intravenous 2.5 mg/kg)
Measurement Type: bioavailability (%)

compound="Cc1cc(-n2nc3c(c2-n2ccn(-c4ccc5c(cnn5C)c4F)c2=O)[C@H](C)N(C(=O)c2cc4cc([C@H]5CCOC(C)(C)C5)ccc4n2[C@@]2(c4noc(=O)[nH]4)C[C@@H]2C)CC3)cc(C)c1F [Orforglipron, reference compound]" test_result=7.93

----------
- Procedure Summary: Monkey pharmacokinetic assay
- Assay type: in vivo, male cynomolgus monkeys
- Experimental Setup: cynomolgus monkey, in vivo, po; monkeys, intragastric administration 5 mg/kg (intravenous 1 mg/kg)
Measurement Type: bioavailability (%)

structure_string=Cc1cc(-n2nc3c(c2-n2ccn(-c4ccc5c(c4)N(C)C(=O)C54CCOCC4)c2=O)[C@H](C)N(C(=O)c2cc4cc([C@H]5CCOC(C)(C)C5)ccc4n2[C@@]2(c4noc(=O)[nH]4)C[C@@H]2C)CC3)cc(C)c1F unit_info=% test_result=32.6

----------
The reader will find reported IC50 values listed item by item below.
- System Name: CYP2C19 (Homo sapiens, UniProt P33261)
- Construct: from tissue; host or cells: human liver microsomes
- Sequence (P33261 whole entry): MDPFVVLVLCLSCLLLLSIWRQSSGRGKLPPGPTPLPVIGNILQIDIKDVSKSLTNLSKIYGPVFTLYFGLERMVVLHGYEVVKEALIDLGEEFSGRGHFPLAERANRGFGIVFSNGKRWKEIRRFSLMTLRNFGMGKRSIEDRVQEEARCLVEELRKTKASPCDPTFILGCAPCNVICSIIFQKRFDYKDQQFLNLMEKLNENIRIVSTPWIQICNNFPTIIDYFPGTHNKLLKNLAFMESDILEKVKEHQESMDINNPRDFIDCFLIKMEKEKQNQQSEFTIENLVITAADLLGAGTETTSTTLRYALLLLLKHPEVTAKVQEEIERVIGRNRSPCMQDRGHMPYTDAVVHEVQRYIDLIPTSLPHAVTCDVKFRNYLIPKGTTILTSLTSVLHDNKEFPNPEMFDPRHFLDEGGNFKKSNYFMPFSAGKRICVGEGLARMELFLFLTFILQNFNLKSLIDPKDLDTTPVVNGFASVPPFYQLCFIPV
- Procedure Summary: CYP450 enzyme activity inhibition assay (human liver microsomes)
- Format: in vitro ADME
- Experimental Setup: human, microsomes
Measurement Type: IC50

compound="C[C@H]1c2c(nn(-c3ccc(F)c(C4(F)CC4)c3)c2-n2ccn(-c3ccc4c(c3)N(C)C(=O)C43CCOCC3)c2=O)CCN1C(=O)c1cc2cc([C@H]3CCOC(C)(C)C3)ccc2n1[C@@]1(c2noc(=O)[nH]2)C[C@@H]1C [Compound 6]" measurement_type=IC50 test_result="> 30 µM"
compound="[2H]C([2H])([2H])N1C(=O)C2(CCOCC2)c2ccc(-n3ccn(-c4c5c(nn4-c4cc(C)c(F)c(C)c4)CCN(C(=O)c4cc6cc([C@H]7CCOC(C)(C)C7)ccc6n4[C@@]4(c6noc(=O)[nH]6)C[C@@H]4C)[C@H]5C)c3=O)cc21 [Compound 3]" measurement_type=IC50 test_result="> 30 µM"
compound="Cc1cc(-n2nc3c(c2-n2ccn(-c4ccc5c(c4)N(C)C(=O)C54CCOCC4)c2=O)[C@H](C)N(C(=O)c2cc4cc(C5CCOC(C)(C)C5)sc4n2C2(c4noc(=O)[nH]4)C[C@@H]2C)CC3)cc(C)c1F (single isomer, unassigned) [Compound 9]" measurement_type=IC50 test_result="> 30 µM"

Data origin: patent EP4810500A1
